For each of the compounds below, state its inhibition at 1 µM.
Target: MAGL (Mus musculus)
Sequence (O35678 1-303): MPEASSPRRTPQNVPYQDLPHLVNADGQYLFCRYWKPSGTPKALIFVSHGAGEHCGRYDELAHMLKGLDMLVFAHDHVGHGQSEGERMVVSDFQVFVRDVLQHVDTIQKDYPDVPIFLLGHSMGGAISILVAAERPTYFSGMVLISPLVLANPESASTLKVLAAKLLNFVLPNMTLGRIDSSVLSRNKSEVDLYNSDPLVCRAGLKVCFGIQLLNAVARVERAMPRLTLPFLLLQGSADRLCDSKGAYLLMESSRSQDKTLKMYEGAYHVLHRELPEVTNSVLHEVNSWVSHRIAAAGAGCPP
Assay: In vitro competitive activity-based protein profiling, MAGL, mouse
Settings: read-out: MAGL % inh. 1 μM (mouse)

Query: Look up inhibition at 1 µM for this compound: COc1cccc(O[C@H]2C[C@@H]3CN(C(=O)n4ccc(C(=O)O)n4)C[C@@H]3C2)c1Cl [Example 445]
Result: > 75%

Query: Entry O=C(O)c1ccn(C(=O)N2C[C@H]3C[C@@H](Oc4cccc(-c5ccccc5)c4)C[C@H]3C2)n1 [Example 164] : reported inhibition at 1 µM = ?
Result: > 75%

Query: // returns reported inhibition at 1 µM for input O=C(O)c1nn(C(=O)N2C[C@H]3C[C@H](OCc4cccc(C(F)(F)F)c4)C[C@H]3C2)cc1Cl [Example 314]
Result: > 75%

Query: For the compound shown here, O=C(O)c1ccn(C(=O)N2CCN(Cc3ccc(C(F)(F)F)cc3N3CC[C@@H](F)C3)CC2)n1 [Example 101] , give the reported inhibition at 1 µM.
Result: > 75%

Query: Would you kindly share the measured inhibition at 1 µM for Cc1cc(O[C@H]2C[C@@H]3CN(C(=O)n4ccc(C(=O)O)n4)C[C@@H]3C2)ccc1C(F)(F)F [Example 254] ?
Result: > 75%

Query: Requested field: inhibition at 1 µM. Item: O=C(O)c1ccn(C(=O)N2CCN(Cc3cccc(Oc4cccc(Cl)c4)c3)CC2)n1 [Example 84]
Result: > 75%

Query: Find the recorded inhibition at 1 µM belonging to O=C(O)c1ccn(C(=O)N2C[C@H]3C[C@@H](OCc4cccc(-c5ccccc5)c4)C[C@H]3C2)n1 [Example 279] and report it.
Result: > 75%

Query: Please report the recorded inhibition at 1 µM for O=C(O)c1ccn(C(=O)N2CCN(Cc3cccc(Oc4cnccc4C(F)(F)F)c3)CC2)n1 [Example 352] .
Result: > 75%

Query: Can you look up the measured inhibition at 1 µM of O=C(O)c1ccn(C(=O)N2CCC(OCc3cc(Cl)ccc3C(F)(F)F)CC2)n1 [Example 277] for me?
Result: > 75%

Query: Fill in: inhibition at 1 µM of CN(Cc1ccccc1Cl)[C@H]1C[C@@H]2CN(C(=O)n3ccc(C(=O)O)n3)C[C@@H]2C1 [Example 184] is ___
Result: 0 to 25%

Query: Need inhibition at 1 µM of Cc1cn(C(=O)N2CCC3(CCN(Cc4cc(Cl)cc(Cl)c4)C3)CC2)nc1C(=O)O [Example 316] , thanks.
Result: > 75%

Query: Recorded inhibition at 1 µM for O=C(O)c1ccn(C(=O)N2CCN(Cc3cccc(Oc4ncccc4F)c3)CC2)n1 [Example 264] , please?
Result: > 75%

Query: Item CNC(=O)c1ccn(C(=O)N2CC3CN(Cc4cccc(C(F)(F)F)c4)CC3C2)n1 (stereo not drawn) [Example 432] has what recorded inhibition at 1 µM?
Result: > 75%

Query: Item under review: O=C(O)c1ccn(C(=O)N2CCC3(CCCN3C(=O)c3cc4ccc(C(F)(F)F)cc4s3)CC2)n1 [Example 56] . Reported inhibition at 1 µM?
Result: > 75%

Query: Which measured inhibition at 1 µM value corresponds to O=C(O)c1ccn(C(=O)N2CCC3(CCN(Cc4cc(Cl)cc(Cl)c4Cl)C3)CC2)n1 [Example 337] ?
Result: > 75%

Query: Form field: reported inhibition at 1 µM of NC(=O)c1ccc(Cl)cc1CN1CCC2(CCN(C(=O)n3ccc(C(=O)O)n3)CC2)C1 [Example 300]
Result: 0 to 25%

Query: For the compound O=C(O)c1ccn(C(=O)N2CCN(Cc3cccc(Oc4ncccn4)c3)CC2)n1 [Example 62] , what inhibition at 1 µM is on record?
Result: 0 to 25%

Query: Need inhibition at 1 µM of CCOc1cc(CN2CCC3(CCN(C(=O)n4ccc(C(=O)O)n4)CC3)C2)ccc1Cl [Example 21] , thanks.
Result: 25 to 50%

Query: Fill in: inhibition at 1 µM of O=C(O)c1ccn(C(=O)N2CCC3(CCCN3Cc3ccc(C(F)(F)F)cc3N3CCCCC3)CC2)n1 [Example 404] is ___
Result: > 75%

Query: Using the record for O=C(O)c1nn(C(=O)N2CC3CN(Cc4cccc(Oc5ccc(Cl)cc5)c4)CC3C2)cc1C(F)(F)F (stereo not drawn) [Example 147] , report its inhibition at 1 µM.
Result: 0 to 25%

Query: Please give the measured inhibition at 1 µM for this compound: CNC(=O)c1ccn(C(=O)N2CCC3(CCN(Cc4cc(Cl)ccc4Cl)C3)C2)n1 (stereo not drawn) [Example 428]
Result: > 75%

###

Assignment: determine reported inhibition at 1 µM for the given molecules.
Target: FAAH (Homo sapiens, UniProt O00519)
Sequence (O00519 whole entry): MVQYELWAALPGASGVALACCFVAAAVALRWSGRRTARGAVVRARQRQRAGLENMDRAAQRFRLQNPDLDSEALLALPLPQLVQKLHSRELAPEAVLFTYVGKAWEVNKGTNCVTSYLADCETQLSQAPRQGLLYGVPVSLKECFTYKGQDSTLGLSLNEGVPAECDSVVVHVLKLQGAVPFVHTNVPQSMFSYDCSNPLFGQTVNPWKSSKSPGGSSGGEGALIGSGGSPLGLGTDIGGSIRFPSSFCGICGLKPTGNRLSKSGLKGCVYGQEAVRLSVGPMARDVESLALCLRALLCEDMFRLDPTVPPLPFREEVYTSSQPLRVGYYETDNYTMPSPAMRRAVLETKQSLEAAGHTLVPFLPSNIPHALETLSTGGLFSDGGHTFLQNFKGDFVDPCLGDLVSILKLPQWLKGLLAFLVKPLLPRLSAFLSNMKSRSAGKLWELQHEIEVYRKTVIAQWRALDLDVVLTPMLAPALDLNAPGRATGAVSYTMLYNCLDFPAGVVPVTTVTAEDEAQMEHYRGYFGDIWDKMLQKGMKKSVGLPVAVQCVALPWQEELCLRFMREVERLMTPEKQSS
Assay: In vitro competitive activity-based protein profiling, FAAH, human
Details: read-out: FAAH % inh. 1 μM (human)

Query: Reported inhibition at 1 µM, molecule CN(Cc1ccc(C(F)(F)F)cc1-c1nccs1)C1(C)CCN(C(=O)n2ccc(C(=O)O)n2)CC1 : ____
Result: 0 to 25%

Query: // lookup inhibition at 1 µM for O=C(O)c1ccn(C(=O)N2CCN(Cc3cc(Cl)cc(Oc4ccc(Cl)cc4)c3)CC2)n1
Result: > 75%

Query: Param item = O=C(O)c1ccn(C(=O)N2CCN(Cc3cccc(Cl)c3N3C4CCC3COC4)CC2)n1 ; retrieve measured inhibition at 1 µM.
Result: 0 to 25%

Query: Fill in: inhibition at 1 µM of O=C(O)c1ccn(C(=O)N2CCN(Cc3ccc(C(F)(F)F)cc3N3CCN(C4CC4)CC3)CC2)n1 is ___
Result: 0 to 25%

Query: Item under review: O=C(O)c1ccn(C(=O)N2CCN(Cc3ccc(C(F)(F)F)c(N4C5CCC4COC5)c3)CC2)n1 . Reported inhibition at 1 µM?
Result: 0 to 25%

Query: // inhibition at 1 µM lookup, key: NC(=O)c1ccn(C(=O)N2CCC3(CCN(Cc4ccc(N5CCCC5)cc4C(F)(F)F)C3)CC2)n1
Result: > 75%

Query: Using the record for O=C(O)c1ccn(C(=O)N2CCN(Cc3ccc(Cl)cc3N3CCN(C4CC4)CC3)CC2)n1 , report its inhibition at 1 µM.
Result: 0 to 25%

Query: I have this molecule here, O=C(O)c1ccn(C(=O)N2CCN(Cc3cccc(Oc4ccncc4)c3)CC2)n1 , and I need its recorded inhibition at 1 µM.
Result: 0 to 25%

Query: Which inhibition at 1 µM value is on record for NC(=O)c1ccn(C(=O)N2CCN(Cc3ccc(N4CCOCC4)cc3Cl)CC2)n1 ?
Result: > 75%

Query: Endpoint output: inhibition at 1 µM of C[C@H]1CCCN1c1cc(C(F)(F)F)ccc1CN1CCN(C(=O)n2ccc(C(=O)O)n2)CC1 . Value?
Result: 0 to 25%

Query: Recorded inhibition at 1 µM of C[C@@H]1CC[C@H](C)N1c1cc(C(F)(F)F)ccc1CN1CCCC12CCN(C(=O)n1ccc(C(=O)O)n1)CC2 , please.
Result: 0 to 25%

Query: Entry under review: O=C(O)c1ccn(C(=O)N2CCN(Cc3cccc(Oc4ccccn4)c3)CC2)n1 . Reported inhibition at 1 µM?
Result: 0 to 25%

Query: Look at this molecule and give its reported inhibition at 1 µM. O=C(O)c1ccn(C(=O)N2CCN(Cc3cccc(Oc4cc(C(F)(F)F)ccn4)c3)CC2)n1
Result: 50 to 75%

Query: Which inhibition at 1 µM value is on record for O=C(O)c1ccn(C(=O)N2CCC3(CCCN3Cc3cc(Cl)cc(C(F)(F)F)c3)CC2)n1 ?
Result: 0 to 25%

Query: Item under review: O=C(O)c1ccn(C(=O)N2CCC3(CCCN3Cc3ccc(C(F)(F)F)cc3Cl)CC2)n1 . Reported inhibition at 1 µM?
Result: 0 to 25%

Query: Entry under review: C[C@@H]1CCCCN1c1cc(C(F)(F)F)ccc1CN1CCN(C(=O)n2ccc(C(=O)O)n2)CC1 . Reported inhibition at 1 µM?
Result: 0 to 25%

Query: Recorded inhibition at 1 µM for O=C(O)c1ccn(C(=O)N2CCN(Cc3ccc(C(F)(F)F)cc3N3C4CCC3COC4)CC2)n1 , please?
Result: 0 to 25%

Query: Suppose we examine the molecule NC(=O)c1ccn(C(=O)N2CCC3(CCN(Cc4cc(Cl)cc(C(F)(F)F)c4)C3)CC2)n1 ; what inhibition at 1 µM value has been reported?
Result: > 75%

Query: Request the reported inhibition at 1 µM associated with O=C(O)c1ccn(C(=O)N2CCC3(CCN(Cc4c(Cl)cccc4C(F)(F)F)C3)CC2)n1
Result: 0 to 25%

The reported numbers originate from patent US10266497B2.
